# measured_on: AK1
# protocol_summary: pooled miR-30 sensor sort-seq; sequence = guide strand; note: reference of the scale not given here
# condition_context: shRNA
property_measured: sensor-assay potency score (higher = more potent)
Give the figure by itself; no unit, no explanation.

Take a look at these entries with their results.
TCATTGTCGTCCACACGCCCGC; -0.841
TCCACATACAGCAGCAGTGTGG; -1.37
TACTTCTGCACGATCTTCTCAC; 0.346
TAATAGGTCTCCAGCCGCTTTT; -1.38
TGCACGATCTTCTCACACTGGG; -0.837
TTGACTTTGGCCACCATGGCAT; -0.482

# evaluate next
What measured sensor-assay potency score (higher = more potent) goes with `TTGTAATAGGTCTCCAGCCGCT` ? -0.883

---

# measured_on: CHSY1
# protocol_summary: pooled miR-30 sensor sort-seq; sequence = guide strand
# condition_context: shRNA
# sensor-assay potency score (higher = more potent) per entry
Give the figure by itself; no unit, no explanation.

Take a look at these entries with their results.
TTGCTCGACATCGCTGAAGGAA; -0.494
TTGTGCTCACTCTTCGACCCAG; -0.424
TTTTACTGTAACTTGGATCATT; -0.393
TTTCCCACTATAAACAATCTTT; -0.597

# evaluate next
Under CHSY1: sensor-assay potency score (higher = more potent) value of `TTTATCTTTGGGTTCTTTGTGC` ? 0.332

---

# measured_on: MYH14
# protocol_summary: pooled miR-30 sensor sort-seq; sequence = guide strand
# condition_context: shRNA
# sensor-assay potency score (higher = more potent) per entry
Give the figure by itself; no unit, no explanation.

Take a look at these entries with their results.
TCATCTGCCATCTCATCCCGGT; -0.0949
TTGTCATTCTTCACTGTCTTGG; -0.287
TAGTGGAGAACACTGAAGTCGG; -0.73

# evaluate next
What measured sensor-assay potency score (higher = more potent) goes with `TTTCCGTCTTCCCAGCTCCAGA` ? -1.5

---

# measured_on: IREB2
# protocol_summary: pooled miR-30 sensor sort-seq; sequence = guide strand
# condition_context: shRNA
# sensor-assay potency score (higher = more potent) per entry
Give the figure by itself; no unit, no explanation.

Take a look at these entries with their results.
TAAAATTCCACAGGTAACCAAA; -1.05
TTATGTGTGAATCTGTGCCGAC; -0.0474

# evaluate next
What measured sensor-assay potency score (higher = more potent) goes with `TATTGTAGTTCGATCAACTATA` ? -0.8

---

# measured_on: TMEM42
# protocol_summary: pooled miR-30 sensor sort-seq; sequence = guide strand
# condition_context: shRNA
Rule: Yes for sensor-assay potency score (higher = more potent) not less than -1, No for anything less.

I'd appreciate it if you could say whether `TTGAATACGCCCCAAAAGCGGC` has sensor-assay potency score (higher = more potent) at least equal to -1. No

I'd appreciate it if you could say whether `TCCATACAGCACATAGCCCAGG` has sensor-assay potency score (higher = more potent) at least equal to -1. No

I'd appreciate it if you could say whether `TAAACCCATGCTCACCTCGCTG` has sensor-assay potency score (higher = more potent) at least equal to -1. No

I'd appreciate it if you could say whether `TACGCGGTCGCGGACACGGCGC` has sensor-assay potency score (higher = more potent) at least equal to -1. No

I'd appreciate it if you could say whether `TTGAAAAAGTCACTGTGACAGA` has sensor-assay potency score (higher = more potent) at least equal to -1. Yes
